biological target: Brisbane H1N1 (A/Brisbane/59/07) neuraminidase (Influenza A virus, UniProt D5F1R0)
Sequence (D5F1R0 1-470): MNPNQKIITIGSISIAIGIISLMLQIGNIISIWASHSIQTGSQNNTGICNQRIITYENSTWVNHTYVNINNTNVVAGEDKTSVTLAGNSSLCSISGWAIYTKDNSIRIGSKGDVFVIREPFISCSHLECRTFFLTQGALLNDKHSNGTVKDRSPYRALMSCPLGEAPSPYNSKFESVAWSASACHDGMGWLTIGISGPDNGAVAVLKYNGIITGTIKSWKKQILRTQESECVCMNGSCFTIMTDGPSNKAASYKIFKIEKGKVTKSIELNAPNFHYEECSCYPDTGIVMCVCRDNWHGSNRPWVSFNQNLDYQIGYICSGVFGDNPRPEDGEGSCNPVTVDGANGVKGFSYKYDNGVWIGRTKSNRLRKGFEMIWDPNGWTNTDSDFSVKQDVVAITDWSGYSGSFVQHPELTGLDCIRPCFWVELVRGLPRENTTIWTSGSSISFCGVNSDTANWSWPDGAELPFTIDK

| compound | experimental target | khyd |
| --- | --- | --- |
| CC(=O)NC1C(NC(=N)N)C(F)C(F)(C(=O)O)OC1[C@H](O)[C@H](O)CO (stereo in doubt) [FeqGuDFSA] | Brisbane H1N1 (A/Brisbane/59/07) neuraminidase (Influenza A virus, UniProt D5F1R0) | 0.0005 0.0015 0.001 0.0019 0.0005 min^−1 |

====

Record type: t1/2 (inac) measurement. Applies to: California H1N1 (A/California/07/09) neuraminidase (Influenza A virus)

| compound | experimental target | t1/2 (inac) |
| --- | --- | --- |
| CC(=O)N[C@@H]1C(NC(=N)N)C(F)[C@](F)(C(=O)O)OC1[C@H](O)[C@H](O)CO (stereo partly shown) [FaxGuDFSA] | California H1N1 (A/California/07/09) neuraminidase (Influenza A virus) | 7.4 9.2 20.9 6.8 20.2 min |
| CC(=O)NC1C(N)C(F)C(F)(C(=O)O)OC1[C@H](O)[C@H](O)CO (stereo in doubt) [FeqAmDFSA] | California H1N1 (A/California/07/09) neuraminidase (Influenza A virus) | 0.9 0.2 0.4 0.8 — min |
| CC(=O)N[C@@H]1C(N)C(F)[C@](F)(C(=O)O)OC1[C@H](O)[C@H](O)CO (stereo partly shown) [FaxAmDFSA] | California H1N1 (A/California/07/09) neuraminidase (Influenza A virus) | 2.1 2.5 1.7 4.0 20.8 min |
| CC(=O)NC1C(NC(=N)N)C(F)C(F)(C(=O)O)OC1[C@H](O)[C@H](O)CO (stereo in doubt) [FeqGuDFSA] | California H1N1 (A/California/07/09) neuraminidase (Influenza A virus) | 0.3 0.5 0.9 0.5 0.8 min |

====

target: California H1N1 (A/California/07/09) neuraminidase (Influenza A virus)

| compound | experimental target | khyd |
| --- | --- | --- |
| CC(=O)NC1C(NC(=N)N)C(F)C(F)(C(=O)O)OC1[C@H](O)[C@H](O)CO (stereo in doubt) | California H1N1 (A/California/07/09) neuraminidase (Influenza A virus) | 0.0005 0.0015 0.001 0.0019 0.0005 min^−1 |

====

Reported Ki by item:
target: California H1N1 (A/California/07/09) neuraminidase (Influenza A virus, UniProt C3W6G3)
parameter: Ki (nM)

| compound | quantitative result |
| --- | --- |
| CC(=O)N[C@@H]1C(NC(=N)N)C(F)[C@](F)(C(=O)O)OC1[C@H](O)[C@H](O)CO (stereo partly shown) | 350 |
| CC(=O)NC1C(N)C(F)C(F)(C(=O)O)OC1[C@H](O)[C@H](O)CO (stereo in doubt) | 370 |
| CC(=O)NC1C(NC(=N)N)C(F)C(F)(C(=O)O)OC1[C@H](O)[C@H](O)CO (stereo in doubt) | 100 |
| CC(=O)N[C@@H]1C(N)C(F)[C@](F)(C(=O)O)OC1[C@H](O)[C@H](O)CO (stereo partly shown) | 4280 |

====

assay: in vivo; conditions: Balb/c, mouse, 1 mg/kg

| compound | display unit | bioavailability |
| --- | --- | --- |
| CC(=O)N[C@@H]1C(NC(=N)N)C(F)[C@](F)(C(=O)O)OC1[C@H](O)[C@H](O)CO (stereo partly shown) | % | 92 |
